All figures here come from ChEMBL document CHEMBL5046270.

Experiment: Half life in plasma of BALB/c mouse xenografted with mouse CT26 cells at 100 mg/kg, po by LC-MS/MS analysis
Type: ADME, organism-based
measure: half-life (h)

1. CN1CCN(C(=O)c2ccc3cc(CCNc4ccnc5ccc(C#N)cc45)ccc3c2)CC1 : 3.53

---

Experiment: AUC (0-24hrs) in tumor of BALB/c mouse xenografted with mouse CT26 cells at 100 mg/kg, po by LC-MS/MS analysis
Assay type: ADME, organism-based, Neoplasm
Design: time < 24 hr, route oral, dose 100 mg/kg
measure: AUC(0-t) at 24 h (ng·h/mL)

1. CN1CCN(C(=O)c2ccc3cc(CCNc4ccnc5ccc(C#N)cc45)ccc3c2)CC1 : 88600

---

Assay: Tmax in tumor of BALB/c mouse xenografted with mouse CT26 cells at 100 mg/kg, po by LC-MS/MS analysis
Type: ADME, organism-based, Neoplasm
measure: Tmax

1. CN1CCN(C(=O)c2ccc3cc(CCNc4ccnc5ccc(C#N)cc45)ccc3c2)CC1 : 12 h

---

Biological target: Cyclin-C/Cyclin-dependent kinase 19 (Homo sapiens)
Sequence (Q9BWU1 whole entry): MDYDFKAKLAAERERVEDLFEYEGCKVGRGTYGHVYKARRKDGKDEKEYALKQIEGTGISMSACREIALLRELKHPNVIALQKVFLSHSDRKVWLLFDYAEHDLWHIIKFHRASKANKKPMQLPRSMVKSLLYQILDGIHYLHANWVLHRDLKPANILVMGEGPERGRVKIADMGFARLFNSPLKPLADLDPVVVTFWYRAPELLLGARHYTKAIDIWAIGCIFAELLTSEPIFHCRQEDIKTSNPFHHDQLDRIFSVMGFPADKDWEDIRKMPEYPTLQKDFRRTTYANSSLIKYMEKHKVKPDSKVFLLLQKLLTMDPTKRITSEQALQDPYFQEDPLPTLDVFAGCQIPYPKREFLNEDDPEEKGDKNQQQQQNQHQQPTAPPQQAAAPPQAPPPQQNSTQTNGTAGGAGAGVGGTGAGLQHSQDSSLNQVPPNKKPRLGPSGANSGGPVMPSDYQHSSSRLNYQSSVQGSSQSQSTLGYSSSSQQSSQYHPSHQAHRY
Sequence (P24863 whole entry, further chain): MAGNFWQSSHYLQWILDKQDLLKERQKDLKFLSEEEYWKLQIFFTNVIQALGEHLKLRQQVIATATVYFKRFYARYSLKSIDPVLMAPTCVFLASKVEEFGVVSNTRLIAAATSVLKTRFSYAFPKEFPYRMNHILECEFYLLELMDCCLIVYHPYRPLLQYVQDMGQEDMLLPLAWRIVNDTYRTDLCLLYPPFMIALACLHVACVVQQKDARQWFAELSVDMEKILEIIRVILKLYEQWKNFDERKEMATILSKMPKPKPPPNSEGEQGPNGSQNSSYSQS
Experiment: Binding affinity to recombinant human CDK19/cyclinC assessed as dissociation constant by TR FRET based assay
pKd: −log10 of the molar value.
measure: pKd

1. CN1CCN(C(=O)c2ccc3cc(CCNc4ccnc5ccc(C#N)cc45)ccc3c2)CC1 : 8.54

---

Assay: Elimination rate constant in tumor of BALB/c mouse xenografted with mouse CT26 cells at 2.5 mg/kg, iv by LC-MS/MS analysis
Type: ADME, organism-based, Neoplasm
measure: k el (s⁻¹)

1) CN1CCN(C(=O)c2ccc3cc(CCNc4ccnc5ccc(C#N)cc45)ccc3c2)CC1 : 1.67e-05

---

Experiment: Elimination rate constant in tumor of BALB/c mouse xenografted with mouse CT26 cells at 100 mg/kg, po by LC-MS/MS analysis
Assay type: ADME, organism-based, Neoplasm
measure: k el (s⁻¹)

1. CN1CCN(C(=O)c2ccc3cc(CCNc4ccnc5ccc(C#N)cc45)ccc3c2)CC1 : 2.78e-05

---

Experiment: Oral bioavailability in tumor of BALB/c mouse xenografted with mouse CT26 cells at 100 mg/kg by LC-MS/MS
Assay type: ADME, organism-based, Neoplasm
measure: bioavailability (%)

1. CN1CCN(C(=O)c2ccc3cc(CCNc4ccnc5ccc(C#N)cc45)ccc3c2)CC1 : 34.6

---

Biological target: CDK8/Cyclin C (Homo sapiens)
Sequence (P49336 whole entry, one chain of several): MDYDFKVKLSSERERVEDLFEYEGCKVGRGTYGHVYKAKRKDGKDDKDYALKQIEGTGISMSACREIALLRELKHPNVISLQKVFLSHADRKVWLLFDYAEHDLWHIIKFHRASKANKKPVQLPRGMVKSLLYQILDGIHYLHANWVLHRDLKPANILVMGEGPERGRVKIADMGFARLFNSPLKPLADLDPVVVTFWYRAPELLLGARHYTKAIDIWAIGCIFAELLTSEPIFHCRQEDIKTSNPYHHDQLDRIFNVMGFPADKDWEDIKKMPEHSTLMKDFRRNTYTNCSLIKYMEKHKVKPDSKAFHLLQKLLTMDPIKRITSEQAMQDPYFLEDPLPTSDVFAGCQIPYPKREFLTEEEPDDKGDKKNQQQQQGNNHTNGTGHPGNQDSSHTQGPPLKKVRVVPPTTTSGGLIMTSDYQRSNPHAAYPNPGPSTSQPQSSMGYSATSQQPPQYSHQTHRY
Assay: Binding affinity to kinase tracer 236 binding to His tagged recombinant human CDK8/cyclinC assessed as dissociation constant by TR FRET based assay
pKd: −log10 of the molar value.
measure: pKd

1) CN1CCN(C(=O)c2ccc3cc(CCNc4ccnc5ccc(C#N)cc45)ccc3c2)CC1 : 8.86

---

Experiment: Tmax in tumor of BALB/c mouse xenografted with mouse CT26 cells at 2.5 mg/kg, iv by LC-MS/MS analysis
Format: ADME, organism-based, Neoplasm
measure: Tmax (min)

1. CN1CCN(C(=O)c2ccc3cc(CCNc4ccnc5ccc(C#N)cc45)ccc3c2)CC1 : 34.8

---

Assay: Half life in tumor of BALB/c mouse xenografted with mouse CT26 cells at 2.5 mg/kg, iv by LC-MS/MS analysis
Format: ADME, organism-based, Neoplasm
measure: half-life (h)

1) CN1CCN(C(=O)c2ccc3cc(CCNc4ccnc5ccc(C#N)cc45)ccc3c2)CC1 : 12.1
